System: HEK293T
experimentalProtocol: qHTS assay to identify novel small-molecules to repurpose for Merkel cell carcinoma treatment (AID 1296009); further: nearly all actives have a fitted effect of over 60% in size
experimentalConditions: MCC and control cell lines, CellTiter-Glo viability, 72 h; at 44.8 µM (top of the series) unless noted
Records with an inconclusive call do not appear. Activity calls are given as the source filed them. The call rests on the fitted dose curve; in most records, active means well fitted inhibition curve with a large enough effect; inconclusive means small, poorly fitted or top-dose-only effect; inactive means flat fitted curve, though single readings scatter.

smilesCode: CCCCCOC(=O)Nc1nc(=O)n([C@@H]2O[C@H](C)[C@@H](O)[C@H]2O)cc1F
outcome: inactive
--
smilesCode: C[C@@H](N)C(=O)O
outcome: inactive

* * *

experimentalProtocol: Primary qHTS for inhibitors of La Crosse Virus (LACV) - induced cell death in SH-SY5Y cells (AID 1508616);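 further: top concentration of the series differs between compounds; higher means more rescue of cells from virus-induced death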
experimentalConditions: SH-SY5Y LACV cytopathicity rescue, ATP luminescence, 6 d; series mostly up to 4.29 µM
Records with an inconclusive call do not appear. Calls of active or inactive are those of the source. Calls come from the whole dose curve; as a rule, active = well fitted inhibition curve with a large enough effect; inconclusive = small, poorly fitted or top-dose-only effect; inactive = no such curve, though single readings can be large or run the other way.
metricName: activity change

For orientation, consider the following solved cases.
compound: Cc1cc(C)c(NC(=O)CN(CC(=O)O)CC(=O)O)c(C)c1Br
activity change: inactive

compound: NS(=O)(=O)c1cc(-c2nn[nH]n2)c(NCc2cccs2)cc1Cl
activity change: inactive

compound: COc1ccc(C(=O)NCc2ccc(OCCN(C)C)cc2)cc1OC
activity change: inactive

compound: CN1CCCN=C1COC(=O)C(O)(c1ccccc1)C1CCCCC1 (stereo not drawn)
activity change: inactive

compound: NNc1nnc(NN)c2ccccc12
activity change: inactive

Ask | Specify measured activity change for CCCNC(C)C(=O)Nc1c(C)csc1C(=O)OC (stereo not drawn) .
Reply | inactive

Ask | Specify measured activity change for CCCC(O)C(CC)CO (stereo not drawn) .
Reply | inactive

Ask | Specify measured activity change for c1ccc2[nH]ccc2c1 .
Reply | inactive

Ask | Specify measured activity change for C[N+](C)(C)CC[N+]1(C)Cc2c(Cl)c(Cl)c(Cl)c(Cl)c2C1 .
Reply | inactive

Ask | Specify measured activity change for CC(C)C[C@@H](N)C(=O)O .
Reply | inactive

Ask | Specify measured activity change for C[n+]1ccccc1/C=N/O .
Reply | inactive

These entries and their values trace back to PubChem BioAssay (NCATS).
